test-system: T1, THD1 K403A (UniProt P26039 1-405, K403A)
T1 construct: talin-1 (TLN1) head domain, residues 1-405, K403A; source: E. coli (DE3) Rosetta 2, purified (IMAC, SEC); not shown: His10-SUMO, N-terminal, cleaved
T1 sequence (P26039 1-405 K403A): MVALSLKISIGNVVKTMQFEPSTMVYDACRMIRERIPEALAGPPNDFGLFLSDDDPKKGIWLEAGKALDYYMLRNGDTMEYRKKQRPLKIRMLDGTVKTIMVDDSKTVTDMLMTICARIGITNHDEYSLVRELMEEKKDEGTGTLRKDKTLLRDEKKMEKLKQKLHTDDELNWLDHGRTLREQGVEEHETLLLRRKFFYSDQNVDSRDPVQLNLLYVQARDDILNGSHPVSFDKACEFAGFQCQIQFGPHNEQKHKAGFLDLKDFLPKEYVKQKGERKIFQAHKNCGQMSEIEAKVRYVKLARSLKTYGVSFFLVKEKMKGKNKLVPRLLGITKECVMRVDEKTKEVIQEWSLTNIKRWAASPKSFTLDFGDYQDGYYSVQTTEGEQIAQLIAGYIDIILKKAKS
experiment: MST; apparent; THD1 or THD1 mutants titrated to 488–β3-CT in the presence of 30-40 µM KIND2; MST buffer
settings: both partners purified
pKd: −log10 of the molar value. No end group written: not given here.
readout-name: pKd

>>> assay_value("{ATTO 488}-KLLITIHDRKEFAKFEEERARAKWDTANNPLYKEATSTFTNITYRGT (peptide, UniProt O54890 741-787, looked up, integrin β3 cytoplasmic tail (β3-CT); source: synthetic peptide (MPIB Core Facility)) [ATTO 488-labeled integrin β3 cytoplasmic tail (488–β3-CT)]")
3.94
